target: NAD-dependent protein deacylase sirtuin-5, mitochondrial (Homo sapiens); assay: blockers of sirtuin-5 deacylase activity – biochemical, fluorescence imaging, single point, set 5, primary screen (AID 652115); conditions: Purified SirT5, succinyl-peptide AMC, trypsin-coupled fluorescence; at 15 µM
Among all 330,000 compounds or so, about 3,800 (1.2%) were called active. Cut-off read from the data, not from the text of the source: active = inhibition above about 15%; inconclusive = no clear call, values can overlap the other calls; inactive = below that. For the sample, actives were picked, then their nearest neighbours and some compounds at random.
Hello, when you answer, please use one of the following outcomes: 1 (yes) (active), 0 (no) (inactive)

Example cases with answers are listed next.
1) CC1(C)N=C(N)NC(Nc2ccc(Cl)cc2)=N1; 1 (yes)
2) CC(C)(C)OC(=O)N[C@H](C(=O)OC(C)(C)C)c1ccc(Br)cc1; 0 (no)
3) O=C(C[C@H]1C=C[C@H](NC(=O)Nc2ccccc2F)[C@@H](CO)O1)NCc1ccc(Cl)cc1; 0 (no)
4) Clc1ccc(Nc2ccc3ccccc3n2)cc1; 0 (no)
5) CC(C)CCC(C)NC(=O)c1ccc2nccnc2c1 (stereo not given); 0 (no)
6) O=C(C[C@H]1CC[C@@H](NC(=O)Cc2cccnc2)[C@H](CO)O1)Nc1ccc(-c2ccccc2)cc1; 0 (no)

Request: Hi, do you know how CN(C)C(=O)c1ccc(-c2ccccc2[C@@H]2[C@@H](C#N)N(C(=O)C3CCCC3)[C@H]2CO)cc1 came out in this test?
Result: 0 (no)

###

molecular target: NAD-dependent protein deacylase sirtuin-5, mitochondrial (Homo sapiens); assay: blockers of sirtuin-5 deacylase activity – biochemical, fluorescence imaging, single point, set 5, primary screen (AID 652115); conditions: Purified SirT5, succinyl-peptide AMC, trypsin-coupled fluorescence; at 15 µM
Screen size: about 330,000 compounds; about 3,800 (1.2%) were called active. No stated cut-off is given here; in the data, active means inhibition above about 15%; inconclusive means no clear call, values can overlap the other calls; inactive means below that. This is one part of a sample in which actives are shown more often than they occur.
Hello, when you answer, please use one of the following outcomes: TRUE = active, FALSE = inactive

Example cases with answers are listed next.
1) Cc1cccc(CN(C)C[C@H]2OCc3cn(nn3)CCCC(=O)N([C@@H](C)CO)C[C@H]2C)c1; FALSE
2) C[C@@H]1CN([C@@H](C)CO)C(=O)c2c(c3ccccc3n2C)-c2ccccc2CO[C@@H]1CN(C)S(=O)(=O)c1ccc(F)cc1; FALSE
3) Cc1ccc(S(=O)(=O)N(C)C[C@@H]2OCc3ccccc3-c3c(n(C)c4ccccc34)C(=O)N([C@@H](C)CO)C[C@@H]2C)cc1; TRUE
4) COCC(=O)N1C[C@@H](C)[C@H](OC)CN(C)C(=O)c2cc(NC(=O)c3cc(C)on3)ccc2OC[C@@H]1C; FALSE
5) C[C@H]1CN([C@@H](C)CO)C(=O)c2cc(NC(=O)Cc3cn(C)c4ccccc34)ccc2O[C@H]1CN(C)Cc1ccc(Cl)c(Cl)c1; FALSE

Request: Hi, do you know how C[C@@H]1CN([C@@H](C)CO)C(=O)c2cc(NC(=O)Cc3ccccc3)ccc2O[C@H]1CN(C)Cc1ccc(Cl)c(Cl)c1 came out in this test?
Result: FALSE

Request: One more molecule: Cc1ccc(S(=O)(=O)N(C)C[C@H]2Oc3ccc(NC(=O)Cc4cn(C)c5ccccc45)cc3CC(=O)N([C@@H](C)CO)C[C@H]2C)cc1
Result: TRUE

###

As shown below, each of these compounds has a reported inhibition value.
target: NAD-dependent protein deacylase sirtuin-5, mitochondrial (Homo sapiens); assay: blockers of sirtuin-5 deacylase activity – biochemical, fluorescence imaging, single point, set 5, primary screen (AID 652115); details: Purified SirT5, succinyl-peptide AMC, trypsin-coupled fluorescence; at 15 µM; active compounds read high
About 3,800 (1.2%) of roughly 330,000 compounds were called active. This excerpt belongs to a sample that is enriched for actives.
Write the number in % without appending the unit.

1) C[C@H](CO)N1C[C@H](C)[C@@H](CN(C)C(=O)c2ccncc2)Oc2cc(/C=C/c3ccccc3)ccc2S1(=O)=O; 0.659
2) C/C=C/c1ccccc1[C@@H]1[C@@H](CO)N(S(=O)(=O)c2cccc(F)c2)[C@H]1C#N; 2.5
3) COc1cccc(C(=O)Nc2ccc3c(c2)C(=O)N(C)[C@@H]2CC[C@H](CC(=O)NCCCN4CCOCC4)O[C@H]2CO3)c1; 1.19

Request: # input compound: O=S(=O)(c1ccccc1F)N1[C@@H]2CNC[C@H]1C2c1ccc(-c2cncnc2)cc1 (some centres not stated) ; wanted: its inhibition
Result: -2.66

Request: One more compound: COc1ccc(NC(=O)N(C)C[C@@H]2OCCCC[C@H](C)Oc3ccc(NS(=O)(=O)c4cccs4)cc3C(=O)N([C@@H](C)CO)C[C@@H]2C)cc1
Result: -0.093

Request: One more compound: O=S(=O)(Cc1ccccc1)N1CCCCN2[C@@H](CO)[C@@H](c3ccc(-c4ccc(F)cc4)cc3)[C@@H]2C1
Result: 4.06

Request: One more compound: CC(C)NC(=O)N1[C@@H]2c3ccc(-c4ccc(F)cc4)c(=O)n3C[C@@H]2[C@@H](CO)[C@@H]1C(=O)N1CCOCC1
Result: -2.98

###

molecular target: NAD-dependent protein deacylase sirtuin-5, mitochondrial (Homo sapiens) (UniProt Q9NXA8); assay: blockers of sirtuin-5 deacylase activity – biochemical, fluorescence imaging, single point, set 5, primary screen (AID 652115); conditions: Purified SirT5, succinyl-peptide AMC, trypsin-coupled fluorescence; at 15 µM; active compounds read high
Sequence (Q9NXA8 whole entry, looked up): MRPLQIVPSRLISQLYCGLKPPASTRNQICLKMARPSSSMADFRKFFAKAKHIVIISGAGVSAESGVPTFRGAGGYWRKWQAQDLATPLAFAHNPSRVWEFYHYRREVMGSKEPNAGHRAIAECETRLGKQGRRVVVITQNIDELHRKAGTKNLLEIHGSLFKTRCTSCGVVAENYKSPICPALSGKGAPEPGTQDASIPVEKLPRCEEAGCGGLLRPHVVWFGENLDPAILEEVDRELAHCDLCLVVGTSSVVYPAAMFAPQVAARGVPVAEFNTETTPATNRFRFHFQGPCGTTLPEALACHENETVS
In all, about 330,000 compounds went through this assay and about 3,800 (1.2%) were called active. Many of the other results were omitted from the sample, so actives are more common in it than they were.
As shown below, each of these molecules has a reported inhibition value.
Write the number in % without appending the unit.

Consider the worked cases shown below.
1. CCOC(=O)c1ccc(Nc2cc3ccccc3c(=O)[nH]2)cc1; -0.372
2. C[C@@H]1CN([C@@H](C)CO)C(=O)Cc2cc(NC(=O)Nc3cccc4ccccc34)ccc2O[C@H]1CN(C)CC1CCCCC1; -4.93

Request: # input molecule: CCNC(=O)C[C@H]1CC[C@@H]2[C@H](COC[C@H](O)CN2S(=O)(=O)c2ccc(Oc3ccccc3)cc2)O1 ; wanted: its inhibition
Result: -0.497

Request: One more molecule: O=C(C[C@@H]1C[C@@H]2c3cc(NC(=O)Nc4ccc(F)cc4)ccc3O[C@@H]2[C@H](CO)O1)NCC(F)(F)F
Result: -3.74

Request: One more molecule: CCNC(=O)C[C@@H]1CC[C@@H]2[C@H](COc3ccc(NS(=O)(=O)c4ccccc4C)cc3C(=O)N2C)O1
Result: -4.85

Request: One more molecule: Cc1ccc(NC2=C(Cl)C(=O)OC2OC(=O)c2ccccc2C)cc1 (configuration not stated)
Result: 17.3

Request: One more molecule: Oc1c(Cl)cc(Cl)c(Cl)c1Cc1c(O)c(Cl)cc(Cl)c1Cl
Result: 16

###

molecular target: NAD-dependent protein deacylase sirtuin-5, mitochondrial (Homo sapiens) (UniProt Q9NXA8); assay: blockers of sirtuin-5 deacylase activity – biochemical, fluorescence imaging, single point, set 5, primary screen (AID 652115); details: Purified SirT5, succinyl-peptide AMC, trypsin-coupled fluorescence; at 15 µM; active compounds read high
Out of some 330,000 compounds screened, about 3,800 (1.2%) were called active. Only a selection was taken, and actives are over-represented in it overall.
Measure name: inhibition (%)
Write the number in % without appending the unit.

Consider the worked cases shown below.
1. Cn1nnnc1SCC(=O)Nc1sccc1C(N)=O; -1.15
2. C=CCOc1cccc(C2C(C(=O)c3ccc(C)o3)=C(O)C(=O)N2c2nnc(C)s2)c1 (stereo not given); -0.578
3. Cn1cnnc1SCC(=O)NNC(=O)COc1ccc(Br)cc1; -1.96

Request: # input molecule: CCOC(=O)c1c(-c2ccccc2)oc2ccc(OCC(=O)NN)cc12 ; wanted: its inhibition
Result: 6.17

Request: One more molecule: CCCNC(=O)CCc1c(C)nc2c(c(C)nn2-c2ccccc2)c1C
Result: -2.55

Request: One more molecule: COCC(=O)N1CC2(C1)[C@@H](c1ccc(-c3cccc(F)c3)cc1)[C@@H](CO)N2C(=O)COC
Result: -1.31

Request: One more molecule: COCOCCn1cc(CN2CCS(=O)(=O)N(Cc3ccc(-c4ccccc4)cc3)C(CC(C)C)C2=O)nn1 (stereo not given)
Result: -0.714

Request: One more molecule: Cc1cc([N+](=O)[O-])ccc1NS(=O)(=O)c1ccccc1
Result: 4.53

Request: One more molecule: C[C@@H]1CN([C@H](C)CO)C(=O)c2c(c3ccccc3n2C)-c2ccccc2CO[C@H]1CN(C)Cc1ccc(F)cc1
Result: 8.7

Request: One more molecule: CCOC(=O)c1c(-c2ccccc2)oc2ccc(OCC(N)=O)cc12
Result: 22.2

Request: One more molecule: C[C@@H]1CN([C@@H](C)CO)C(=O)c2cccc(NC(=O)Nc3ccc(F)cc3)c2O[C@H]1CN(C)Cc1ccc(-c2ccccc2)cc1
Result: -1.08

Request: One more molecule: COc1ccccc1-c1cn(CC[C@@H]2CC[C@@H](NC(=O)c3ccccc3F)[C@H](CO)O2)nn1
Result: -1.68

Request: One more molecule: COc1cc(C2C(C(=O)c3ccco3)=C(O)C(=O)N2c2cc(C)on2)ccc1OCc1ccccc1 (stereo not given)
Result: -4.04

Request: One more molecule: O=C1c2ccccc2NC(c2ccc(-c3cccc(Cl)c3)o2)N1O (stereo not given)
Result: 1.64

Request: One more molecule: O=S(=O)(NC1CC1)c1ccc2c3c(cccc13)CC2
Result: -2.65

Request: One more molecule: CC(C)c1cn([C@H]2C[C@@H]3O[C@H](CO)CC[C@@H]3O[C@@H]2CCc2ccc(C#CC3CCCCC3)cc2)nn1
Result: -3.82

Request: One more molecule: Cc1cc(C=O)c(C)n1-c1ccc(NC2CCCCC2)c([N+](=O)[O-])c1
Result: 2.63

Request: One more molecule: Cc1nn(-c2ccccc2)c2c1c(C)c(CCC(=O)NCC1CCCO1)c(=O)n2C (stereo not given)
Result: 39.7

Request: One more molecule: O=C([C@@H]1[C@@H](CO)[C@@H]2Cn3c(ccc(-c4ccccc4)c3=O)[C@H]1N2CCC(F)(F)F)N1CCCCC1
Result: -29.7
